test: Total plasma concentration in SCID mouse xenografted with PTEN-null human PC3 cells at 100 mg/kg, po measured after 1 hr; assay type: ADME, organism-based, PC-3; parameters: dose 100 mg/kg, route oral
property: concentration at 1 h (µM)
Write down the numeric answer in µM and omit the unit.

Inquiry: What concentration at 1 h value was documented for this compound, C[C@@H](Nc1cc(F)cc(F)c1)c1cc(C(=O)N(C)C)cn2c(=O)cc(N3CCOCC3)nc12 ?
Reply text: 13

* * *

assay: Total plasma concentration in SCID mouse xenografted with PTEN-null human PC3 cells at 100 mg/kg, po measured after 30 mins; format: ADME, organism-based, PC-3; set-up: dose 100 mg/kg, route oral
property: concentration at 0.5 h
Remember to follow the number with its unit.

Inquiry: What concentration at 0.5 h value was documented for this molecule, CC(Nc1ccc(F)cc1)c1cc(C(=O)N(C)C)cn2c(=O)cc(N3CCOCC3)nc12 (single isomer, unassigned; (-)) ?
Reply text: 71 µM

* * *

test: Buffer/octanol partition coefficient, log D of the compound at pH 7.4 by shake flask method; type: physicochemical
// reported logD per item
Could you keep your reply to the number by itself?

Use these answered entries as a reference point.
> print(dat)
                                   compound  property  numeric.result
1  CC(Nc1cccc(F)c1)c1cc(C(=O)NCCN(C)C)cn2c(=O)cc(N3CCOCC3)nc12 (racemic)      logD               2
2  C[C@@H](Nc1cc(F)cc(F)c1)c1cc(C(=O)N2CCN(C)CC2)cn2c(=O)cc(N3CCOCC3)nc12      logD             2.6
3  CC(Nc1ccccc1)c1cc(C(=O)N(C)C)cn2c(=O)cc(N3CCOCC3)nc12 (single isomer, unassigned; (+))      logD             2.4

Inquiry: What logD value was documented for this compound, C[C@@H](Nc1cc(F)cc(F)c1)c1cc(C(=O)N2CCOCC2)cn2c(=O)cc(N3CCOCC3)nc12 ?
Reply text: 2.7

* * *

// reported hepatocyte CLint per item
experiment: Intrinsic clearance in human hepatocytes measured per 10^6 cells; format: ADME, cell-based, Hepatocyte; conditions: read-out: CLH
Write down the numeric answer in µL/min/1e6 cells and omit the unit.

Use these answered entries as a reference point.
> print(dat)
                                   compound  numeric.result
1  CC(Nc1cccc(F)c1)c1cc(C(=O)N(C)C)cn2c(=O)cc(N3CCOCC3)nc12 (racemic)              45
2  C[C@@H](Nc1cc(F)cc(F)c1)c1cc(C(=O)N2CCOCC2)cn2c(=O)cc(N3CCOCC3)nc12               6
3  CC(Nc1ccc(F)c(F)c1)c1cc(C(=O)N(C)C)cn2c(=O)cc(N3CCOCC3)nc12 (single isomer, unassigned; (-))               9

Inquiry: What hepatocyte CLint value was documented for this compound, CC(Nc1ccc(F)cc1)c1cc(C(=O)N(C)C)cn2c(=O)cc(N3CCOCC3)nc12 (single isomer, unassigned; (-)) ?
Reply text: 3

* * *

target: Phosphatidylinositol 4,5-bisphosphate 3-kinase catalytic subunit beta isoform (Homo sapiens); assay: Inhibition of PI3Kbeta in human MAD-MB-468 cells assessed as inhibition of Ser473 Akt phosphorylation by cellular potency assay
Sequence (P42338 whole entry, canonical isoform): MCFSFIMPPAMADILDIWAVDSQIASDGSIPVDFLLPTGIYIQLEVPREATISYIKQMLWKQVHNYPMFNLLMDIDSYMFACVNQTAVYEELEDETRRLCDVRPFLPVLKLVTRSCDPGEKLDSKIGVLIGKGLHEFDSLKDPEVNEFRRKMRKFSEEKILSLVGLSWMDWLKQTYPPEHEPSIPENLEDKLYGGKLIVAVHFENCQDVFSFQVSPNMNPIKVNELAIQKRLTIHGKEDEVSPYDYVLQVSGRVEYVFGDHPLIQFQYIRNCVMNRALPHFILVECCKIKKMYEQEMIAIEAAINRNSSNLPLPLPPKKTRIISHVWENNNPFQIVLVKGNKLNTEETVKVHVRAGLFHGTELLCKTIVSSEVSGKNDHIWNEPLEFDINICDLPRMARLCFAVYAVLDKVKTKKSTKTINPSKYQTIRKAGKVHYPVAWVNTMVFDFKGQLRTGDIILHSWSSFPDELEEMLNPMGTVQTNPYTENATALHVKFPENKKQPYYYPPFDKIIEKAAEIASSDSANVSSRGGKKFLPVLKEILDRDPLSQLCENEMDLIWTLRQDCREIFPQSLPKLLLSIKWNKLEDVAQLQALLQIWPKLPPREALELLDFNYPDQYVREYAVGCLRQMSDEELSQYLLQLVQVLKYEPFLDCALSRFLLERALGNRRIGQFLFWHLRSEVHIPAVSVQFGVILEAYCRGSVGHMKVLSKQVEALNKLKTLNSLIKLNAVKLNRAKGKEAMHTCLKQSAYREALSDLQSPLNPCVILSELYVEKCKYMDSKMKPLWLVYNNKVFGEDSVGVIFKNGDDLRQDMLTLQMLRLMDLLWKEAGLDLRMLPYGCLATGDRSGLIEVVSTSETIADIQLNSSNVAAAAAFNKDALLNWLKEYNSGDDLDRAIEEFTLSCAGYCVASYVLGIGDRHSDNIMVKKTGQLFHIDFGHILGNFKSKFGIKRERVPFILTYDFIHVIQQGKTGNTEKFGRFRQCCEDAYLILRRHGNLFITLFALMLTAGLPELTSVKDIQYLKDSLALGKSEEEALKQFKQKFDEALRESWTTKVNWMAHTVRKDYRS
property: pIC50
The quantity pIC50 is defined as the negative base-10 logarithm of the molar concentration.

Use these answered entries as a reference point.
> print(dat)
                                   molecule  property  numeric.result
1  CC(Nc1cccc(F)c1)c1cc(C(=O)NCCN(C)C)cn2c(=O)cc(N3CCOCC3)nc12 (racemic)     pIC50            8.70
2  CC(Nc1cccc(Cl)c1)c1cc(C(=O)NCCN(C)C)cn2c(=O)cc(N3CCOCC3)nc12 (racemic)     pIC50            8.00
3  CC(Nc1cccc(C(F)(F)F)c1)c1cc(C(=O)NCCN(C)C)cn2c(=O)cc(N3CCOCC3)nc12 (racemic)     pIC50            7.13
4  Cc1cc(C(C)Nc2cc(F)cc(F)c2)c2nc(N3CCOCC3)cc(=O)n2c1 (stereo unspecified)     pIC50            8.05
5  CC(Nc1cc(F)cc(Cl)c1)c1cc(C(=O)N(C)C)cn2c(=O)cc(N3CCOCC3)nc12 (single isomer, unassigned; (-))     pIC50            7.96

Inquiry: What pIC50 value was documented for this molecule, C[C@@H](Nc1cc(F)cc(F)c1)c1cc(C(=O)N2CCOCC2)cn2c(=O)cc(N3CCOCC3)nc12 ?
Reply text: 7.60

Inquiry: What pIC50 value was documented for this molecule, Cc1cc(C(C)Nc2cccc(Cl)c2)c2nc(N3CCOCC3)cc(=O)n2c1 (stereo unspecified) ?
Reply text: 7.77

Inquiry: What pIC50 value was documented for this molecule, Cc1cc(C(C)Nc2ccc(F)cc2)c2nc(N3CCOCC3)cc(=O)n2c1 (racemic) ?
Reply text: 6.72

Inquiry: What pIC50 value was documented for this molecule, CC(Nc1ccc(F)c(F)c1)c1cc(C(=O)N(C)C)cn2c(=O)cc(N3CCOCC3)nc12 (single isomer, unassigned; (-)) ?
Reply text: 7.47

Inquiry: What pIC50 value was documented for this molecule, C[C@@H](Nc1cc(F)cc(F)c1)c1cc(C(=O)N2CCN(C)CC2)cn2c(=O)cc(N3CCOCC3)nc12 ?
Reply text: 7.54
